Biological target: T1, MBP-STF full length (STENOFOLIA) (Medicago truncatula, UniProt G0ZGT3 1-358)
T1 sequence: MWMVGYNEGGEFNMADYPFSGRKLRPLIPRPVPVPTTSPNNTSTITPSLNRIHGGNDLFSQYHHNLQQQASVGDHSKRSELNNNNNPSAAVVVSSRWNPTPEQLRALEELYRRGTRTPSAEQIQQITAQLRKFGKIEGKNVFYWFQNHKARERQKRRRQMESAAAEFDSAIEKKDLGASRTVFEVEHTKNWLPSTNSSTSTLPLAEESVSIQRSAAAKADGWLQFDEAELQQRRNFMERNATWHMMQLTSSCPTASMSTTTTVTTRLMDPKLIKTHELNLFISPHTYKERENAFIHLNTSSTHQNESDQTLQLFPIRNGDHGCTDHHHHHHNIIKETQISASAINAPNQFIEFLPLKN
Assay: EMSA; 10 mM Tris pH 7.5, 50 mM KCl, 1 mM DTT, 2.5% glycerol, 0.05% NP-40, 5 mM MgCl2, 0.5 mM EDTA, 5 ng/uL poly(dI.dC), 1 ug protein, 100 fmol probe, room temperature 40 min
Conditions: protein: recombinant; tags: MBP (N-terminal, pMAL-c2X); label: 3' biotin; blunt
test-readout: binding result

INSERT INTO measurements (binder, observed) VALUES
  ('TaKN1 probe (TaKN-B1 sequence printed) (dsDNA) DNA 1: TACTGCAGTATTGCCCTCCAGCTTTTTCCTCTCGCTCCCCATCTCCTTCCCTCTAATGATAGCTTAGAGAGAGAAGGAGAAAAGGCTATTCCGCTCAAGGCAAGGCAGGCAGGTACCCTTCTCCTTCCCCAAACCCAAACCCTTTTTCTCTTTCTCTCCGCCCAAGAACTTCACCTCAAGCTCAATCCGTCT DNA 2: AGACGGATTGAGCTTGAGGTGAAGTTCTTGGGCGGAGAGAAAGAGAAAAAGGGTTTGGGTTTGGGGAAGGAGAAGGGTACCTGCCTGCCTTGCCTTGAGCGGAATAGCCTTTTCTCCTTCTCTCTCTAAGCTATCATTAGAGGGAAGGAGATGGGGAGCGAGAGGAAAAAGCTGGAGGGCAATACTGCAGTA', 'binds');

The measured values listed here are drawn from paper PMC5785358.
